# measurement_target: E. coli-originating thymidine phospholylase (Escherichia coli)
# assay_context: relative to [I-125]IUR = 1.00
Relative activity (C—N glycosidic linkage cleavage) reference
Number only, please.

Please report the measured Relative activity (C—N glycosidic linkage cleavage) for Cn1c(=O)c([125I])cn([C@@H]2O[C@H](CO)[C@@H](O)[C@@H]2Br)c1=O [[I-125] IMBAU]
0.0

Please report the measured Relative activity (C—N glycosidic linkage cleavage) for O=c1[nH]c(=O)n([C@H]2C[C@H](O)[C@@H](CO)O2)cc1I [[I-125] IUR, 5-iododeoxyuridine, reference compound]
1.00

---

# measurement_target: E. coli-originating thymidine phospholylase (Escherichia coli, UniProt P07650)
# Sequence (P07650 whole entry): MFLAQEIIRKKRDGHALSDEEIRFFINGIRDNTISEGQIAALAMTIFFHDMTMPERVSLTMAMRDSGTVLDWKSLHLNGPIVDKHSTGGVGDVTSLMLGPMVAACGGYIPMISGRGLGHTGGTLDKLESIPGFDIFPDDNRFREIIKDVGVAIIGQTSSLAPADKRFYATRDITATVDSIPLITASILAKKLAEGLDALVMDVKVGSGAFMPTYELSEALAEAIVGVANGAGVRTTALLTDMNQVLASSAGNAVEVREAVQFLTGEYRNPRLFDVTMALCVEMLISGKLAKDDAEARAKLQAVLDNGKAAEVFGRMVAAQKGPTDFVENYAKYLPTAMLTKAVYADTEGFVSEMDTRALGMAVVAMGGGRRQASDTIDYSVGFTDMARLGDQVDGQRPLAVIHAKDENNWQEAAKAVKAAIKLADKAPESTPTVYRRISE
# assay_context: 0.5–12.0 nmol labeled compound, 0.0009–9.0 units enzyme, 25° C., n = 3
5-IU production rate reference
Give the value in pmol/units/0.5 h but do not write pmol/units/0.5 h after it.

See these solved cases before continuing.
Please report the measured 5-IU production rate for O=c1[nH]c(=O)n([C@H]2C[C@H](O)[C@@H](CO)S2)cc1[125I] [[I-125] ITDU, [I-125]-5-iodo-4′-thio-2′-deoxyuridine]
3778.7

Please report the measured 5-IU production rate for O=c1[nH]c(=O)n([C@@H]2S[C@H](CO)[C@@H](O)[C@@H]2F)cc1[125I] [[I-125] FITAU]
0.5

Please report the measured 5-IU production rate for O=c1[nH]c(=O)n(C2S[C@H](CO)[C@@H](O)[C@@H]2O)cc1[125I] (stereo partly shown) [[I-125] ITAU]
514.8

New cases:
Please report the measured 5-IU production rate for Cn1c(=O)c([125I])cn([C@@H]2O[C@H](CO)[C@@H](O)[C@@H]2Br)c1=O [[I-125] IMBAU]
0.0
